Answer each item with its documented GI50.
Tested on: RXF 393 renal
Assay: NCI tumour cell line growth inhibition, 48 h

Endpoint output: GI50 of "Oc1c(Br)cc(Br)c2cccnc12" . Value?
4.13 µM

# iterate: "COC(=O)[C@@H](C)C[C@H](Cc1ccccc1)NC(=O)c1cccc([C@@H](C[C@H](C(C)C)N(C)C(=O)[C@@H](NC(=O)[C@H]2CCCCN2C)C(C)C)OC(C)=O)n1"
< 0.00167 µM

# iterate: "COc1cc2c(c(OC)c1OC)-c1c(c3ccc([N+](=O)[O-])cc3c(=O)n1CCCN=[N+]=[N-])C2=O"
4.81 µM

# iterate: "CN(C)CCCn1c2c(c3ccncc3c1=O)C(=O)c1ccccc1-2"
1.14 µM

# iterate: "COc1ccc(/C(C)=C(\c2ccc(Cl)cc2)c2ccc(OCCN3CCCCC3)cc2)cc1F"
2.84 µM

# iterate: COc1ccc(C2CC(c3cccc(Nc4ccnc5cc(Cl)ccc45)c3)=NN2c2ccc(Cl)cc2)cc1 (stereo unspecified)
17.5 µM

====

System: SW-620 colon
Experiment: NCI tumour cell line growth inhibition, 48 h; in the data active = GI50 below about 0.43 µM; inactive = the rest
Output constraint: value belongs to active, inactive

Outcome? COc1ccc2c(c1)CCC1C2CCC2(C)C1CC[C@@]2(O)CNC(=O)/C=C/c1ccc(O)c(O)c1 (some centres undefined)
inactive

# iterate: "Oc1c(Br)cc(Br)c2cccnc12"
inactive

# iterate: COc1ccc(C2CC(c3ccc(OC)c(OC)c3)=NN2C(=O)c2cc(OC)c(OC)c(OC)c2)cc1 (centres undefined)
inactive

# iterate: "COc1ccc(/C=C2\CN(Cc3cn(CCCNc4ccnc5cc(Cl)ccc45)nn3)C/C(=C\c3ccc(OC)cc3)C2=O)cc1"
inactive

# iterate: "O=C(/C=C\c1ccc(Cl)c(Cl)c1)c1ccccc1"
inactive

# iterate: "Nc1cc(N)c2nc(-c3ccccc3)c(Sc3ccc(F)cc3)nc2c1"
inactive

# iterate: "Cn1c([N+](=O)[O-])cnc1/C=C1\Oc2ccc(Cl)cc2C1=O"
active

# iterate: "Cc1cccc(NC(=O)c2sc3nc4c(cc3c2N)CCC4)c1C"
active

# iterate: "Cc1cc(N2CCOCC2)nc(N(CCNc2ccnc3cc(Cl)ccc23)Cc2cccs2)n1"
inactive

====

Answer each item with its documented TGI.
Tested on: UACC-257 melanoma
Assay: NCI tumour cell line growth inhibition, 48 h

Endpoint output: TGI of COc1ccc(C2CC(c3ccc(OC)c(OC)c3)=NN2C(=O)c2cc(OC)c(OC)c(OC)c2)cc1 (stereo not drawn) . Value?
> 100 µM

# iterate: COCC(O)CN1C(N)=NC(O)C1O (stereo not drawn)
> 100 µM

# iterate: "COc1cc(OC)cc(N(C)Cc2cnc3nc(N)nc(N)c3c2C)c1"
> 100 µM

# iterate: "CC/C(=C(\c1ccccc1)c1ccc(OCC[N+](C)(C)C)cc1)c1ccccc1"
24.4 µM

# iterate: O=C(NC(c1ccccc1)C(O)C(=O)OCc1ccc2c(c1)C(=O)c1ccccc1C2=O)c1ccccc1 (stereo not drawn)
> 72 µM

# iterate: CCOC(=O)c1ccccc1NC(c1ccccc1)c1ccc2cccnc2c1O (stereo not drawn)
21.5 µM

# iterate: CCCCCCCCCCCCOC1C(C(COC2OC(C(O)CO)C3OC(C)(C)OC23)OC(=O)Nc2ccc([N+](=O)[O-])cc2)OC2OC(C)(C)OC21 (stereo not drawn)
9.35 µM

# iterate: "COc1cc(NS(C)(=O)=O)ccc1N1Cc2cnc3ccc4[nH]ccc1c4c23"
> 100 µM

# iterate: "Clc1ccc(CCn2ccc3ccccc32)c(Cl)c1"
> 100 µM

# iterate: "O=c1[nH]c2cccccc-2c1-c1nc2ccccc2[nH]1"
> 100 µM

# iterate: COc1cc(C2C3=C(COC3=O)N(CCO)c3cc4c(cc32)CCC4)cc(OC)c1OC (stereo not drawn)
> 32.5 µM

# iterate: "O=C1c2ccccc2C(=O)c2c1c1cc(O)ccc1n2Cc1ccc(Cl)cc1Cl"
69.9 µM

# iterate: Cc1ccc(SCN2CCCCC2)cc1 (tested in a mixture with another compound)
30.6 µM

# iterate: "O=S(=O)(N1CCCCN(S(=O)(=O)C(F)(F)F)CCCN(S(=O)(=O)C(F)(F)F)CCCN(S(=O)(=O)C(F)(F)F)CCCCN(S(=O)(=O)C(F)(F)F)CCCN(S(=O)(=O)C(F)(F)F)CCC1)C(F)(F)F"
> 100 µM

# iterate: "Cc1cn2cc(-c3ccncc3)nc2s1"
> 100 µM

# iterate: "Cc1ccc(-c2c(C#N)c(O)n(NS(=O)(=O)c3ccccc3)c(=O)c2C#N)cc1"
> 100 µM

# iterate: "C[CH2][Ge]1([CH2]C)[CH2]CC2(CCN(CCCN(C)C)C2)C[CH2]1"
2.64 µM

# iterate: "CC(C)OP(=O)(OC(C)C)c1ncn(-c2ccc([N+](=O)[O-])cc2)n1"
> 100 µM

# iterate: Nc1n[nH]c(=O)c2c1c(Br)cn2C1OC(CO)C(O)C1O (stereo not drawn)
> 77.9 µM

# iterate: "Cc1nn(C(=O)CC(=O)Nc2ccccc2Cl)c(C)c1N=Nc1ccccc1Cl"
> 100 µM

# iterate: "COC(=O)C1(C(=O)OC)CC2=C(S(=O)(=O)c3ccccc3)C[C@@H](C#N)[C@H]2C1"
> 100 µM

# iterate: "O=C1N[C@@H](c2c[nH]c3ccc(Br)cc23)C(=O)N[C@H]1c1c[nH]c2ccc(Br)cc12"
26.8 µM

# iterate: "COc1ccc(N2CCN(CC(=O)N3CCN(c4nnc(-c5ccc(Cl)cc5)c(-c5ccc(Cl)cc5)n4)CC3)CC2)cc1"
> 100 µM

# iterate: CCO/C=N/C1=C(C#N)C(c2ccc(OC)c(OC)c2)c2c(-c3ccccc3)nn(-c3ccccc3)c2O1 (stereo not drawn)
> 100 µM

# iterate: "CN(C)/C=C/c1ccnc2c1C(=O)c1ccccc1C2=O"
6.19 µM

# iterate: "CN(C)CCCn1c2c(c3ccncc3c1=O)C(=O)c1ccccc1-2"
5.22 µM

# iterate: O=C1OC2C(O)COC2(OCc2c[nH]c3ccccc23)C1O (stereo not drawn) (tested in a mixture with another compound)
> 100 µM

# iterate: "COc1ccc(/C=C2\CN(Cc3cn(CCCNc4ccnc5cc(Cl)ccc45)nn3)C/C(=C\c3ccc(OC)cc3)C2=O)cc1"
23.3 µM

# iterate: "CCOc1c(OC)cc(CNNc2nccs2)cc1OC"
> 100 µM

# iterate: COC(=O)C1CCC2(CC1)NC(=O)NC2=O (stereo not drawn)
> 100 µM

# iterate: Cc1ccc(CCNC(=S)SCC(NC(=O)CCC(N)C(=O)O)C(=O)NCC(=O)O)cc1 (stereo not drawn)
4.47 µM

# iterate: "COc1ccc(/C(C)=C(\c2ccc(Cl)cc2)c2ccc(OCCN3CCCCC3)cc2)cc1F"
7.04 µM

# iterate: "O=C(c1ccccc1)c1cc(-c2ccccc2)c(-c2ccccc2)[nH]c(=O)c1=O"
> 100 µM

# iterate: "Nc1nc(NC(=O)C2=NS(=O)(=O)c3cc(S(N)(=O)=O)c(Cl)cc3N2)n[nH]1"
> 100 µM

# iterate: "CCC1(CC)C(=O)N(C(=O)c2ccc(Cl)cc2)N(C(=O)c2ccccc2Cl)C1=O"
> 100 µM

# iterate: "Cc1cc(N2CCOCC2)nc(N(CCNc2ccnc3cc(Cl)ccc23)Cc2cccs2)n1"
3.6 µM

# iterate: "NCCN.O=N[O-].O=N[O-].O=N[O-].O=N[O-].[Co+3].[K+]"
> 100 µM

# iterate: "Fc1ccccc1N=c1oc2ccc(Br)cc2cc1-c1nc2ccccc2[nH]1"
> 47.5 µM
